experiment: Toxicokinetics, 14-day intranasal study in dogs (Study 62959); format: in vivo; conditions: male, Beagle, dog, plasma, inhaled or intranasal, 0.8 mg/kg/day, Day 14, Male, read-out: t1/2 (converted)
Metric Name: half-life (h)

>  <Smiles>
COc1ccc2[nH]cc(CCN(C)C)c2c1

>  <Unit Of Measure>
h

>  <Measured Result>
1.32

$$$$

====

molecular target: hERG potassium channel current (IKr) (Homo sapiens); assay: cell-based
Sequence (Q12809 whole entry): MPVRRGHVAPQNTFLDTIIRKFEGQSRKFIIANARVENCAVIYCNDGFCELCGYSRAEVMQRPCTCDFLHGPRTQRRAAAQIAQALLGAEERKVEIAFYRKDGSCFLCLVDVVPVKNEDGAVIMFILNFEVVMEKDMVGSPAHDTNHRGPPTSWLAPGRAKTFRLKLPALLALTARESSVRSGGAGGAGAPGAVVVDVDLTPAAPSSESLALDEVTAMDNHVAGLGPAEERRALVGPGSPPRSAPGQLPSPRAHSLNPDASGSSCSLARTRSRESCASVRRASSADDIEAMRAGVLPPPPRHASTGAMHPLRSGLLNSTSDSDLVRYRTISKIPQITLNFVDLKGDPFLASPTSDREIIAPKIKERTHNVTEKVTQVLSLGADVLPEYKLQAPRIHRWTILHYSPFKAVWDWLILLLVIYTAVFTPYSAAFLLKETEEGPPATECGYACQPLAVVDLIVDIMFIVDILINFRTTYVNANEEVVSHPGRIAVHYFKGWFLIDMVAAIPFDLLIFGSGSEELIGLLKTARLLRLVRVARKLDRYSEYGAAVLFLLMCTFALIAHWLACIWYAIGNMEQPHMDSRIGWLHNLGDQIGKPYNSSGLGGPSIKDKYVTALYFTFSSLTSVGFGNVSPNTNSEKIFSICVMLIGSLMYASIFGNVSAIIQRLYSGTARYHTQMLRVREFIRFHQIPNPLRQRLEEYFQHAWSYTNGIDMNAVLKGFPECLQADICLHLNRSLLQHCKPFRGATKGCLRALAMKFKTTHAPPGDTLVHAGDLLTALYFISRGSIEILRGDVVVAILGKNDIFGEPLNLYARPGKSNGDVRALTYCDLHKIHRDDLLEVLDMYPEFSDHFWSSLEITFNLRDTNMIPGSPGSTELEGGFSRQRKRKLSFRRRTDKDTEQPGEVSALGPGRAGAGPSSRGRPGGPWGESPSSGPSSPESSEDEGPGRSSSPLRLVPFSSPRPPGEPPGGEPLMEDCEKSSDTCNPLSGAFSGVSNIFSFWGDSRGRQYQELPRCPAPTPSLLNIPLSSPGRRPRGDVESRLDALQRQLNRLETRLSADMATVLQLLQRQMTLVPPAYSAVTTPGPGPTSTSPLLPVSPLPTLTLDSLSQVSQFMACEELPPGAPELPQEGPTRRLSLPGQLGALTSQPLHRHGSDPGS
pIC50: −log10 of the molar value.
Metric Name: pIC50

>  <Smiles>
COc1ccc2[nH]cc(CCN(C)C)c2c1

>  <Metric Name>
pIC50

>  <Measured Result>
5.06

$$$$

====

assay: Toxicokinetics, 14-day intranasal study in rats (Study 700041); format: in vivo; settings: female, Sprague Dawley, rat, plasma, inhaled or intranasal, 5 mg/kg/day, Day 14, Female, read-out: AUC0-Tlast [SE]
Metric Name: AUC(0-t) (ng·h/mL)

>  <Compound>
COc1ccc2[nH]cc(CCN(C)C)c2c1 [5MeODMT, 5-methoxy-N,N-dimethyltryptamine]

>  <Measured Result>
63.8

$$$$

====

assay: Toxicokinetics, 14-day intranasal study in dogs (Study 62959); assay type: in vivo; settings: female, Beagle, dog, plasma, inhaled or intranasal, 0.8 mg/kg/day, Day 1, Female, read-out: AUCINF_obs

>  <Compound>
COc1ccc2[nH]cc(CCN(C)C)c2c1 [BPL-5MEO, 5-methoxy-N,N-dimethyltryptamine]

>  <AUC(0-inf) / ng·h/mL>
265

$$$$

====

assay: Toxicokinetics, 14-day intranasal study in dogs (Study 62959); format: in vivo; details: male, beagle, dog, plasma, inhaled or intranasal, 0.4 mg/kg/day, Day 1, Male, read-out: AUCINF_obs
Metric Name: AUC(0-inf) (ng·h/mL)

>  <Smiles>
COc1ccc2[nH]cc(CCN(C)C)c2c1

>  <Measured Result>
80.9

$$$$

====

experiment: Toxicokinetics, 14-day intranasal study in dogs (Study 62959); format: in vivo; settings: female, beagle, dog, plasma, inhaled or intranasal, […], 2.5 & […], Day 1, Female

>  <Molecule>
COc1ccc2[nH]cc(CCN(C)C)c2c1 [BPL-5MEO, 5-methoxy-N,N-dimethyltryptamine]

>  <Unit Of Measure>
min

>  <Tmax>
6.66

$$$$

====

test: Toxicokinetics, 14-day intranasal study in dogs (Study 62959); format: in vivo; conditions: male, Beagle, dog, plasma, inhaled or intranasal, 0.8 mg/kg/day, Day 1, Male

>  <Molecule>
COc1ccc2[nH]cc(CCN(C)C)c2c1 [BPL-5MEO, 5-methoxy-N,N-dimethyltryptamine]

>  <Cmax (ng/mL)>
300

$$$$

====

assay: Toxicokinetics, 14-day intranasal study in rats (Study 700041); format: in vivo; details: female, Sprague Dawley, rat, plasma, inhaled or intranasal, 5 mg/kg/day, Day 1, Female, read-out: AUCINF_obs

>  <Smiles>
COc1ccc2[nH]cc(CCN(C)C)c2c1

>  <AUC(0-inf) / ng·h/mL>
53.7

$$$$

====

experiment: 14-day repeat-dose intranasal toxicity study with 14-day recovery in dogs (Study 62959); format: in vivo, dog; settings: both sexes, Beagle, dog, in vivo, inhaled or intranasal; 14 consecutive days intranasal, 14-day recovery

>  <Smiles>
COc1ccc2[nH]cc(CCN(C)C)c2c1

>  <NOAEL at 14 days (mg/kg/day)>
1.5

$$$$

====

experiment: Toxicokinetics, 14-day intranasal study in dogs (Study 62959); format: in vivo; conditions: Beagle, dog, plasma, inhaled or intranasal; dogs, 1.5 mg/kg/day, combined for both sexes; read-out: AUCINT_obs at the NOAEL
Metric Name: AUC (ng·h/mL)

>  <Smiles>
COc1ccc2[nH]cc(CCN(C)C)c2c1

>  <Metric Name>
AUC

>  <Measured Result>
220

$$$$

====

experiment: Competitive equilibration of Pattern A, B and C forms in solvents; type: physicochemical; conditions: suspension in 0.5 ml solvent agitated 24 hours; AB = Pattern A 15 mg + Pattern B 30 mg, AC = Pattern A 15 mg + Pattern C 30 mg; 1 IPA, 2 toluene, 3 iPrOAc, 4 MeCN, 5 MEK, 6 2-MeTHF
Metric Name: Summary of solid form characterisation, DSC endotherm

>  <Compound>
COc1ccc2[nH]cc(CCN(C)C)c2c1.O=C(O)c1ccccc1 [AC1]

>  <Measured Result>
Endotherm at 124 °C

$$$$
>  <Compound>
COc1ccc2[nH]cc(CCN(C)C)c2c1.O=C(O)c1ccccc1 [AB5]

>  <Measured Result>
Endotherm at 124 °C

$$$$
>  <Compound>
COc1ccc2[nH]cc(CCN(C)C)c2c1.O=C(O)c1ccccc1 [AB6]

>  <Measured Result>
Endotherm at 124 °C

$$$$
>  <Compound>
COc1ccc2[nH]cc(CCN(C)C)c2c1.O=C(O)c1ccccc1 [AB1]

>  <Measured Result>
Endotherm at 124 °C

$$$$
>  <Compound>
COc1ccc2[nH]cc(CCN(C)C)c2c1.O=C(O)c1ccccc1 [AC4]

>  <Measured Result>
Endotherm at 124 °C

$$$$
>  <Compound>
COc1ccc2[nH]cc(CCN(C)C)c2c1.O=C(O)c1ccccc1 [AB4]

>  <Measured Result>
Endotherm at 124 °C

$$$$

====

Experiment: Toxicokinetics, 14-day intranasal study in rats (Study 700041)
Assay type: in vivo
Settings: female, Sprague Dawley, rat, plasma, inhaled or intranasal, 75 mg/kg/day, Day 14, Female
Experimental: The animals were monitored for mortality, clinical signs, respiratory measurements, body weights, food consumption, and body temperature. Ophthalmoscopic examinations and respiratory function tests were performed on all animals at scheduled timepoints. Clinical pathology assessments (hematology, coagulation, clinical chemistry, and urinalysis) were evaluated at termination. […] Following dosing, the Main animals were euthanized and subjected to a complete necropsy examination on Day 15. […]
Metric Name: Cmax (ng/mL)

>  <Smiles>
COc1ccc2[nH]cc(CCN(C)C)c2c1

>  <Measured Result>
870

$$$$

====

test: Toxicokinetics, 14-day intranasal study in dogs (Study 62959); type: in vivo; details: male, Beagle, dog, plasma, inhaled or intranasal, 0.8 mg/kg/day, Day 1, Male, read-out: t1/2 (converted)

>  <Smiles>
COc1ccc2[nH]cc(CCN(C)C)c2c1

>  <Unit Of Measure>
min

>  <half-life>
35.7

$$$$

====

assay: Toxicokinetics, 14-day intranasal study in dogs (Study 62959); type: in vivo; details: both sexes, Beagle, dog, plasma, inhaled or intranasal, dogs, 14-day intranasal study; read-out: apparent elimination half-lives
Metric Name: half-life

>  <Smiles>
COc1ccc2[nH]cc(CCN(C)C)c2c1

>  <Measured Result>
19 to 95 min

$$$$

====

test: Toxicokinetics, 14-day intranasal study in dogs (Study 62959); format: in vivo; settings: male, beagle, dog, plasma, inhaled or intranasal, […], 2.5 & […], Day 14, Male
Metric Name: Tmax (min)

>  <Smiles>
COc1ccc2[nH]cc(CCN(C)C)c2c1

>  <Metric Name>
Tmax

>  <Measured Result>
13.4

$$$$

====

molecular target: hERG potassium channel current (IKr) (Homo sapiens); test: in vitro; details: human

>  <Smiles>
COc1ccc2[nH]cc(CCN(C)C)c2c1

>  <inhibition at 3 µM>
23.8%

$$$$

====

experiment: Toxicokinetics, 14-day intranasal study in rats (Study 700041); format: in vivo; conditions: male, Sprague Dawley, rat, plasma, inhaled or intranasal, 20 mg/kg/day, Day 1, Male, read-out: t1/2 (converted)

>  <Smiles>
COc1ccc2[nH]cc(CCN(C)C)c2c1

>  <half-life [min]>
7.5

$$$$

====

assay: Maximum tolerated dose followed by 7-day repeat-dose toxicology in dogs (Study 62958); assay type: in vivo, dog; settings: both sexes, dog, in vivo, inhaled or intranasal; intranasal instillation

>  <Smiles>
COc1ccc2[nH]cc(CCN(C)C)c2c1

>  <MTD>
2.5 mg/kg

$$$$

====

test: Toxicokinetics, 14-day intranasal study in rats (Study 700041); type: in vivo; details: male, Sprague Dawley, rat, plasma, inhaled or intranasal, 75 mg/kg/day, Day 14, Male, read-out: t1/2 (converted)

>  <Compound>
COc1ccc2[nH]cc(CCN(C)C)c2c1 [5MeODMT, 5-methoxy-N,N-dimethyltryptamine]

>  <half-life, min>
6.96

$$$$

====

Assay: Toxicokinetics, 14-day intranasal study in dogs (Study 62959)
Type: in vivo
Details: female, Beagle, dog, plasma, inhaled or intranasal, 0.8 mg/kg/day, Day 1, Female
Experimental: Assessments of mortality, clinical signs, olfactory reflex, body weights, food consumption, ophthalmology, and electrocardiograms were performed. In addition, clinical pathology assessments (hematology, coagulation, clinical chemistry and urinalysis) were evaluated once pretreatment and at termination. […]

>  <Compound>
COc1ccc2[nH]cc(CCN(C)C)c2c1 [BPL-5MEO, 5-methoxy-N,N-dimethyltryptamine]

>  <Unit Of Measure>
µg/mL

>  <Cmax>
0.328

$$$$
